- experimental_system: glycogen phosphorylase (from rabbit muscle, Sigma P1261) (Oryctolagus cuniculus)
- Construct: glycogen phosphorylase (from rabbit muscle, Sigma P1261); purchased Sigma P1261; host or cells: rabbit muscle (tissue-derived)
- assay_text: Enzyme Inhibition Assay (malachite green phosphate readout)
- Format: biochemical
- experimental_parameters: @ 20 μM test compound; percent inhibition (±10%) of enzymatic activity
The reader will find reported inhibition at 20 µM values listed item by item below.
The reply should contain only the number, in %.

O=C(NCc1cccs1)c1ccc(Nc2nc3ccccc3n(CCN3CCCCC3)c2=O)cc1 ... 95
Cn1c(=O)c(Nc2ccc(NC(=O)c3cccnc3)cc2)nc2ccccc21 ... 97

inhibition at 20 µM lookup needed for Cn1c(=O)c(Nc2ccc(C(=O)Nc3ccon3)cc2)nc2cccnc21 , thanks.
96

###

The reader will find reported log10 of IC50 values listed item by item below.
- experimental_system: glycogen phosphorylase (from rabbit muscle, Sigma P1261) (Oryctolagus cuniculus, UniProt P00489)
On a log10 scale: recorded IC50, unit µM.

These solved cases illustrate the format of a correct answer.
CN(C)CCn1c(=O)c(Nc2ccc(C(=O)NCc3cccs3)cc2)nc2ccccc21 ... -0.15
CCn1c(=O)c(Nc2ccc(C(=O)Nc3nccs3)cc2)nc2ccccc21 ... -0.08
O=C(O)Cn1c(=O)c(Nc2ccc(C(=O)NCc3cccs3)cc2)nc2ccccc21 ... 0.76

log10 of IC50 lookup needed for Cn1ccc(NC(=O)c2ccc(Nc3nc4ccccc4n(C)c3=O)cc2)n1 , thanks.
-0.05

Follow-up entry: Cn1c(=O)c(Nc2ccc(C(=O)Nc3ccsc3)cc2)nc2ccccc21
-0.15

Follow-up entry: Cn1c(=O)c(Nc2ccc(NC(=O)c3cccnc3)cc2)nc2ccccc21
-0.10

Follow-up entry: COC(=O)c1ccc(Nc2nc3ccccc3n(CCN3CCOCC3)c2=O)cc1
0.26

###

The reader will find reported IC50 values listed item by item below.
- experimental_system: glycogen phosphorylase (from rabbit muscle, Sigma P1261) (Oryctolagus cuniculus)
- Sequence (P00489 2-843 limits assumed): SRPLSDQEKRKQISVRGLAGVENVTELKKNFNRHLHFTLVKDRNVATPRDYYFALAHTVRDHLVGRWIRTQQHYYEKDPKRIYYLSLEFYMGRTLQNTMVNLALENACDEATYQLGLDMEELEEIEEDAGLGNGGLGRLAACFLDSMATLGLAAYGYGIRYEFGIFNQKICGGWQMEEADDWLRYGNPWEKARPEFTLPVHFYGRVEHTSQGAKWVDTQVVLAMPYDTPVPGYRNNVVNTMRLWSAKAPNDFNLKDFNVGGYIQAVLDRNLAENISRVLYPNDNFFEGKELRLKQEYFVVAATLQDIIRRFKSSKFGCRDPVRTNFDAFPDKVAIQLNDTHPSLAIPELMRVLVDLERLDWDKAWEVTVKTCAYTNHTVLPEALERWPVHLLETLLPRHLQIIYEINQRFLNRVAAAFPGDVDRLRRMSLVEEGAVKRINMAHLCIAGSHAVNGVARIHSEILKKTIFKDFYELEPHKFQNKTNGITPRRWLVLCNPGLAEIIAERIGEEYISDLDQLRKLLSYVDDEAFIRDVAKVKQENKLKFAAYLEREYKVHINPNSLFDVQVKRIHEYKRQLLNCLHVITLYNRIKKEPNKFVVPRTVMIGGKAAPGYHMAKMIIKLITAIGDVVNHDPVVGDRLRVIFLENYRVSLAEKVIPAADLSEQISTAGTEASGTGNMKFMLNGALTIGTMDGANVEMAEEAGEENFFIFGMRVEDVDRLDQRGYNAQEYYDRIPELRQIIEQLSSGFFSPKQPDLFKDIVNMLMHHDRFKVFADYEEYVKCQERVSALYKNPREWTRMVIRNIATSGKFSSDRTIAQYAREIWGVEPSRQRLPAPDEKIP
The reply should contain only the number, in nM.

These solved cases illustrate the format of a correct answer.
Cn1c(=O)c(Nc2ccc(C(=O)Nc3ccno3)cc2)nc2ccccc21 ... 120
Cn1c(=O)c(Nc2ccc(-c3ccc[nH]3)cc2)nc2ccccc21 ... 2500
Cn1c(=O)c(Nc2ccc(NC(=O)c3cccs3)cc2)nc2ccccc21 ... 1500

IC50 lookup needed for O=C(NCc1cccs1)c1ccc(Nc2nc3ccccc3n(CCO)c2=O)cc1 , thanks.
300

Follow-up entry: Cn1c(=O)c(Nc2ccc(C(=O)Nc3ccon3)cc2)nc2cccnc21
320

###

- experimental_system: glycogen phosphorylase (from rabbit muscle, Sigma P1261) (Oryctolagus cuniculus, UniProt P00489)
- Construct: glycogen phosphorylase (from rabbit muscle, Sigma P1261); purchased Sigma P1261; host or cells: rabbit muscle (tissue-derived)
- Sequence (P00489 2-843 limits assumed): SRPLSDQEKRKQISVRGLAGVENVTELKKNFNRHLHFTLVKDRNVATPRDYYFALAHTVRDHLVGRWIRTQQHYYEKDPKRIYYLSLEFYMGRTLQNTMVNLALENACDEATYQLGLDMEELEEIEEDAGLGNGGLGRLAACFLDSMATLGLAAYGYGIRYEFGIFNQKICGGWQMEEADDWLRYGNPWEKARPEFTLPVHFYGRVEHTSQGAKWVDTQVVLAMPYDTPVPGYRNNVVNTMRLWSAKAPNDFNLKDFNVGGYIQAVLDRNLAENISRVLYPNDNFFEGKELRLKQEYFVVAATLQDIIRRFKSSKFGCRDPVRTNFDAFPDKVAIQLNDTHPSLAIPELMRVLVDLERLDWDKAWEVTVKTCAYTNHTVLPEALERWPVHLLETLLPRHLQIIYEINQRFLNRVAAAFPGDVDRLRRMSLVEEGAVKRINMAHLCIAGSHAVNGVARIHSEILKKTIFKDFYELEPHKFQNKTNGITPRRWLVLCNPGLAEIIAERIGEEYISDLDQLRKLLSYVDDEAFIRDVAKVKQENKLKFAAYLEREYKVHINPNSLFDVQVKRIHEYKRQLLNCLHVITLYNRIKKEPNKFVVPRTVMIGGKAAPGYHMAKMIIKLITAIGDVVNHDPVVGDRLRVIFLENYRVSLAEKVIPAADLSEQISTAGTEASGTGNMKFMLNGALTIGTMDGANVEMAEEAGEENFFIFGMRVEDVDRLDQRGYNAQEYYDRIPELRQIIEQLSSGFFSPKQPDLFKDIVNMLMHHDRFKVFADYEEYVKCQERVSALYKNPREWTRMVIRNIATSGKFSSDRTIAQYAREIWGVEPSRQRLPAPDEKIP
- assay_text: Enzyme Inhibition Assay (malachite green phosphate readout)
- Type: biochemical
- experimental_parameters: @ 20 μM test compound; percent inhibition (±10%) of enzymatic activity
- Protocol: All samples contain 2% DMSO, and the background lacks enzyme but contains all substrates. The reaction was stopped by the addition of […] of a 1N HCl solution containing 10 mg/ml ammonium molybdate and 0.38 mg/ml malachite green. After a 15-minute incubation period to allow the colored reaction (a quantitative measurement of inorganic phosphate) to develop, the colored wells were read at 650 nm. Data was reported as percent inhibition (±10%) of enzymatic activity at a specified concentration.
The reader will find reported inhibition at 20 µM values listed item by item below.
The reply should contain only the number, in %.

These solved cases illustrate the format of a correct answer.
Cn1c(=O)c(Nc2ccc(NC(=O)c3cccs3)cc2)nc2ccccc21 [Compound 17] ... 70
Cn1cccc1C(=O)Nc1ccc(Nc2nc3ccccc3n(C)c2=O)cc1 [Compound 19] ... 77
CCn1c(=O)c(Nc2ccc(C(=O)Nc3ccon3)cc2)nc2ccccc21 [Compound 28] ... 100
COC(=O)c1ccc(Nc2nc3ccccc3n(CCN3CCOCC3)c2=O)cc1 [Compound 57] ... 89
Cn1c(=O)c(Nc2ccc(C(=O)Nc3cnccn3)cc2)nc2ccccc21 [Compound 12] ... 68
O=C(O)Cn1c(=O)c(Nc2ccc(C(=O)NCc3cccs3)cc2)nc2ccccc21 [Compound 75] ... 77
Cn1c(=O)c(Nc2ccc(C(=O)Nc3ccno3)cc2)nc2ccccc21 [Compound 7] ... 92
O=C(NCc1cccs1)c1ccc(Nc2nc3ccccc3n(CCO)c2=O)cc1 [Compound 51] ... 99

inhibition at 20 µM lookup needed for Cn1ccc(NC(=O)c2ccc(Nc3nc4ccccc4n(C)c3=O)cc2)n1 [Compound 8] , thanks.
95

Follow-up entry: Cn1c(=O)c(Nc2ccc(C(=O)NCc3ccccc3)cc2)nc2ccccc21 [Compound 78]
96

Follow-up entry: Cn1c(=O)c(Nc2ccc(-c3ccc[nH]3)cc2)nc2ccccc21 [Compound 22]
92

Follow-up entry: Cn1c(=O)c(Nc2ccc(C(=O)Nc3ccsc3)cc2)nc2ccccc21 [Compound 9]
93

Follow-up entry: O=C(Nc1ccon1)c1ccc(Nc2nc3ccccc3n(CCN3CCOCC3)c2=O)cc1 [Compound 55]
97

Follow-up entry: Cn1c(=O)c(Nc2ccc(-n3ccnc3)cc2)nc2ccccc21 [Compound 23]
82

Follow-up entry: Cn1c(=O)c(Nc2ccc(NC(=O)c3ccco3)cc2)nc2ccccc21 [Compound 18]
80

Follow-up entry: CCn1c(=O)c(Nc2ccc(C(=O)Nc3cc[nH]n3)cc2)nc2ccccc21 [Compound 29]
100

Follow-up entry: CN(C)CCn1c(=O)c(Nc2ccc(C(=O)NCc3cccs3)cc2)nc2ccccc21 [Compound 70]
99

Follow-up entry: CCn1c(=O)c(Nc2ccc(C(=O)Nc3nccs3)cc2)nc2ccccc21 [Compound 30]
90

Values from patent US20050148586A1
